Target: TBK1 (Homo sapiens, UniProt Q9UHD2)
Construct: TBK1 and IKKε were expressed and purified as full length recombinant proteins
Experiment: TR-FRET enzymatic activity assay, TBK1; note: full length recombinant TBK1 at 2.5 nM
Protocol: Biological Assay for TBK1 and IKKε: Enzymatic activity of IKKε and TBK1 was measured using a homogeneous time resolved fluorescence resonance energy transfer (TR-FRET) assay that monitors enzyme dependent phosphorylation of a biotinylated serine/threonine peptide substrate. An increase in the amount of phosphorylated peptide results in an increase in TR-FRET signal. TBK1 and IKKε were expressed and purified as full length recombinant proteins. […]
pIC50: −log10 of the molar value.
REPORTED METRIC: pIC50

Past entries and their recorded results:
>>> print(df.to_string())
                                   compound  reading
0  N#Cc1cc(-c2ccnc(NC(=O)[C@@H]3C[C@H]3c3cccnc3)c2)ccc1O[C@H]1CCN(C(=O)CO)CC1(F)F [Example 141]     7.76
1  N#Cc1cc(-c2ccnc(NC(=O)C3CC3)c2)ccc1O[C@H]1CCN(C(=O)CO)C[C@H]1F [Example 8]     7.98

[I] N#Cc1cc(-c2ccnc(NC(=O)[C@@H]3C[C@H]3C(=O)N3CC(O)C3)c2)ccc1OC1CCOCC1 (relative stereo) [Example 45]
[II] N#Cc1cc(-c2cc(NC(=O)C3CC3)ncn2)ccc1O[C@H]1CCN(C(=O)c2cnco2)C[C@H]1F [Example 33]
Field: lower pIC50 | Options: I / II Respond with the label that goes with your answer.
I
(I: 6.35, II: 7.32)

[1] N#Cc1cc(-c2cc(NC(=O)C3CC3)ncn2)ccc1O[C@H]1CCN(C=O)C[C@H]1F [Example 29]
[2] N#Cc1cc(-c2ccnc(NC(=O)[C@H]3C[C@@H]3c3cccnc3)c2)ccc1O[C@H]1CCN(C(=O)[C@@H](O)CO)CC1(F)F [Example 140]
Lower pIC50: 1 or 2 ? Refer to your chosen item by its label in the answer.
1

====

target: IKKε (Homo sapiens); construct: TBK1 and IKKε were expressed and purified as full length recombinant proteins; assay: TR-FRET enzymatic activity assay, IKKε; conditions: read-out: IKKϵ IC50; note: full length recombinant IKKε at 0.3 nM
Sequence (Q14164 whole entry): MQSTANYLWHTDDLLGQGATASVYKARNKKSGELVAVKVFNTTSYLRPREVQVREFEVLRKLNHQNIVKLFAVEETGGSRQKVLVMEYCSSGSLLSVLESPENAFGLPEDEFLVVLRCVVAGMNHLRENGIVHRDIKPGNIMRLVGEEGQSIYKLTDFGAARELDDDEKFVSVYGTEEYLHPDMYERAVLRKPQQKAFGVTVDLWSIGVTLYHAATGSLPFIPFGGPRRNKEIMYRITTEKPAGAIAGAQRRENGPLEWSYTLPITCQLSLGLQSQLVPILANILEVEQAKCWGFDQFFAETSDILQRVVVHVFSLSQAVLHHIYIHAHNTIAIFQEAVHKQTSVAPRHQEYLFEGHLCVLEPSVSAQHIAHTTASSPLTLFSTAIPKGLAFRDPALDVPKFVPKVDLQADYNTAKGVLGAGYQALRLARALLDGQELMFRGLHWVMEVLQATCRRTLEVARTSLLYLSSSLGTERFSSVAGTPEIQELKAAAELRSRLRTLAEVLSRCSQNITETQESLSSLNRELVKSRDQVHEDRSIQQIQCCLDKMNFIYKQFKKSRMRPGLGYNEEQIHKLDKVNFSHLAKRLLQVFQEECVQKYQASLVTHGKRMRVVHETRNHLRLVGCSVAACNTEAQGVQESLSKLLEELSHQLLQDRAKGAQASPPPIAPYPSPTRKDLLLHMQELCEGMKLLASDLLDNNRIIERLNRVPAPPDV
REPORTED METRIC: IC50 (µM)

Previously resolved entries follow.
                                   compound  display_unit  reading
0  N#Cc1cc(-c2ccnc(NC(=O)C3CC3)c2)ccc1N1CC[C@H](F)C1            µM   0.0613
1  Cc1nnc([C@@H]2C[C@H]2C(=O)Nc2cc(-c3ccc(O[C@H]4CCN(C(=O)CO)C[C@H]4F)c(C#N)c3)ccn2)o1            µM    0.041
2  CO[C@@H]1CCN(c2ccc(-c3ccnc(NC(=O)C4CC4)c3)cc2C#N)C1            µM    0.477
3  Cn1cc([C@@H]2C[C@H]2C(=O)Nc2cc(-c3ccc(O[C@H]4CCN(C(=O)CO)C[C@H]4F)c(C#N)c3)ncn2)cn1            µM   0.0443
4  N#Cc1cc(-c2ccnc(NC(=O)[C@H]3C[C@@H]3c3cccnc3)c2)ccc1O[C@H]1CCN(C(=O)[C@@H](O)CO)CC1(F)F            µM   0.0059

[P] N#Cc1cc(-c2cc(NC(=O)C3CC3)ncn2)ccc1O[C@H]1CCN(C(=O)c2cnco2)C[C@H]1F
[Q] N#Cc1cc(-c2ccnc(NC(=O)[C@@H]3C[C@H]3c3cccnc3)c2)ccc1O[C@H]1CCN(C(=O)CO)C[C@H]1F (relative stereo) [Example 127]
[R] Cn1cc([C@@H]2C[C@H]2C(=O)Nc2cc(-c3ccc(O[C@H]4CCN(C(=O)CO)C[C@H]4F)c(C#N)c3)ccn2)cn1 [Example 90]
[S] N#Cc1cc(-c2ccnc(NC(=O)C3CC34CC4)c2)ccc1OC1CCOCC1 (stereo not drawn)
List these items ordered by IC50, big to small. Write the labels out in the order the request specifies.
S, P, Q, R
(S: 0.512 µM, P: 0.167 µM, Q: 0.0332 µM, R: 0.0095 µM)

====

Target: TBK1 (Homo sapiens, UniProt Q9UHD2)
Construct: TBK1 and IKKε were expressed and purified as full length recombinant proteins
Sequence (Q9UHD2 1-729): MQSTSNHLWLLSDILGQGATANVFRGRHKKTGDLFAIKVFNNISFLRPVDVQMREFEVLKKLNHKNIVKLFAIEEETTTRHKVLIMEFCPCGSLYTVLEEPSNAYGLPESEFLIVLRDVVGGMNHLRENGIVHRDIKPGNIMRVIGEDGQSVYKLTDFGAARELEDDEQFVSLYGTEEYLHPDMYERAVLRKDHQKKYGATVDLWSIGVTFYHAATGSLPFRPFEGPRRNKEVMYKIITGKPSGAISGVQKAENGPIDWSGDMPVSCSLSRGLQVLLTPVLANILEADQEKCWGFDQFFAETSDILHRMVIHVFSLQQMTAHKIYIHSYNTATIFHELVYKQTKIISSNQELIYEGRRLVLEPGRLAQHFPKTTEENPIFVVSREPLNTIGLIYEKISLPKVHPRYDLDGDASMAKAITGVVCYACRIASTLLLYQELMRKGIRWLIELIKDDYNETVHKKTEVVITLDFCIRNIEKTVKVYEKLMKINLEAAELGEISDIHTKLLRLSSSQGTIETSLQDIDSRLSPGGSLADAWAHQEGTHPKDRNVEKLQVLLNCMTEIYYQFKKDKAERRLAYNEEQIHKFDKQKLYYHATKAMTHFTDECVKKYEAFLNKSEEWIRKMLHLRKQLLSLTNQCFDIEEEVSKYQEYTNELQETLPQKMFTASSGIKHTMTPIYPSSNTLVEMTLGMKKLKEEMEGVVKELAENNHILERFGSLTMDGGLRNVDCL
Test: TR-FRET enzymatic activity assay, TBK1; note: full length recombinant TBK1 at 2.5 nM
pIC50: −log10 of the molar value.
REPORTED METRIC: pIC50

In [3]: df
Out[3]:
                                   compound  reported_metric  reading
0  Cn1cc(C(=O)N2CC[C@H](Oc3ccc(-c4cc(NC(=O)C5CC5)ncn4)cc3C#N)[C@H](F)C2)nn1 [Example 27]            pIC50     7.74
1  C[C@@H]1C[C@H]1C(=O)Nc1cc(-c2ccc(O[C@H]3CCN(C(=O)CO)C[C@H]3F)c(C#N)c2)ccn1 [Example 72]            pIC50     7.78

[1] N#Cc1cc(-c2cc(NC(=O)C3CC3)ncn2)ccc1O[C@H]1CCN(C(=O)[C@@H]2COC(=O)N2)CC1(F)F [Example 155]
[2] Cn1ccnc1[C@@H]1C[C@H]1C(=O)Nc1cc(-c2ccc(O[C@H]3CCN(C(=O)CO)CC3(F)F)c(C#N)c2)ncn1 [Example 114]
// which entry has the larger pIC50 value, 1 or 2 ? Your choice should be expressed through its label.
1
(1: 8.15, 2: 6.74)

====

molecular target: TBK1 (Homo sapiens); construct: TBK1 and IKKε were expressed and purified as full length recombinant proteins; assay: TR-FRET enzymatic activity assay, TBK1; note: full length recombinant TBK1 at 2.5 nM
pIC50: −log10 of the molar value.
REPORTED METRIC: pIC50

Please review the entries below; each comes with its answer.
                                   compound          measured_on  reported_metric  reading
0  N#Cc1cc(-c2ccnc(NC(=O)C3CC3C#N)c2)ccc1O[C@H]1CCN(C(=O)CO)C[C@H]1F (stereo partly shown)  TBK1 (Homo sapiens)            pIC50     7.58
1  CCOC(=O)[C@@H]1C[C@H]1C(=O)Nc1cc(-c2ccc(OC3CCOCC3)c(C#N)c2)ncn1 (relative stereo)  TBK1 (Homo sapiens)            pIC50     6.31
2  N#Cc1cc(-c2ccnc(NC(=O)[C@@H]3C[C@@H]3C(N)=O)c2)ccc1O[C@H]1CCN(C(=O)CO)C[C@H]1F (stereo in doubt)  TBK1 (Homo sapiens)            pIC50     6.22

[a] N#Cc1cc(-c2cc(NC(=O)C3CC3)ncn2)ccc1C(=O)NCC(F)(F)F
[b] N#Cc1cc(-c2ccnc(NC(=O)C3CC3)c2)ccc1N1CC[C@H](F)C1
[c] N#Cc1cc(-c2cc(NC(=O)[C@@H]3C[C@H]3c3cccnc3)ncn2)ccc1O[C@H]1CCN(C(=O)[C@@H](O)CO)CC1(F)F
// ascending sort on recorded pIC50 Your answer should be the labels, listed in the requested order.
a, b, c

====

Biological target: TBK1 (Homo sapiens, UniProt Q9UHD2)
Construct: TBK1 and IKKε were expressed and purified as full length recombinant proteins
Experiment: TR-FRET enzymatic activity assay, TBK1; note: full length recombinant TBK1 at 2.5 nM
Protocol: Biological Assay for TBK1 and IKKε: Enzymatic activity of IKKε and TBK1 was measured using a homogeneous time resolved fluorescence resonance energy transfer (TR-FRET) assay that monitors enzyme dependent phosphorylation of a biotinylated serine/threonine peptide substrate. An increase in the amount of phosphorylated peptide results in an increase in TR-FRET signal. TBK1 and IKKε were expressed and purified as full length recombinant proteins. […]
pIC50: −log10 of the molar value.
REPORTED METRIC: pIC50

In [3]: df
Out[3]:
                                   compound                          measured_on  reading
0  N#Cc1cc(-c2ccnc(NC(=O)C3(F)CC3)c2)ccc1O[C@H]1CCN(C(=O)CO)C[C@H]1F  TBK1 (Homo sapiens, UniProt Q9UHD2)     6.40
1  Cn1cc([C@@H]2C[C@H]2C(=O)Nc2cc(-c3ccc(O[C@H]4CCN(C(=O)[C@@H](O)CO)C[C@H]4F)c(C#N)c3)ncn2)cn1  TBK1 (Homo sapiens, UniProt Q9UHD2)     7.79
2  N#Cc1cc(-c2ccnc(NC(=O)[C@@H]3C[C@H]3c3ccncc3)c2)ccc1OC1CCOCC1 (relative stereo)  TBK1 (Homo sapiens, UniProt Q9UHD2)     7.12

[P] N#Cc1cc(-c2ccnc(NC(=O)C3CCCCC3)c2)ccc1OC1CCOCC1
[Q] Cn1cc([C@@H]2C[C@H]2C(=O)Nc2cc(-c3ccc(O[C@H]4CCN(C(=O)[C@@H](O)CO)CC4(F)F)c(C#N)c3)ncn2)cn1
Lowest pIC50? choose P or Q State your choice using its label.
P
